Test system: T-47D breast
Experiment: NCI tumour cell line growth inhibition, 48 h
test_readout: TGI

INSERT INTO results (molecule, experimental_system, test_readout, observed_result) VALUES
  ('NNc1nc2ccccc2s1', 'T-47D breast', 'TGI', '> 100 µM'),
  ('CC(=O)OCC1OC(N2C(C)=C(C(C)=O)C(c3ccco3)C(C#N)=C2S)C(OC(C)=O)C(OC(C)=O)C1OC(C)=O (configuration not stated)', 'T-47D breast', 'TGI', '> 100 µM'),
  ('Cn1nc(-c2ccccc2)nc1[N+](=O)[O-]', 'T-47D breast', 'TGI', '> 10 µM'),
  ('Cc1occc1C(=S)Nc1ccc(Cl)c(/C=N/OC(C)C)c1', 'T-47D breast', 'TGI', '> 41.6 µM'),
  ('COC(=O)C(=O)C(C(=O)C(=O)Nc1ccccc1C(C)=O)c1nc2ccc(C(=O)c3ccccc3)cc2[nH]c1=O (configuration not stated)', 'T-47D breast', 'TGI', '> 100 µM'),
  ('COc1c2ccccc2c(OC)c2nc(C)ccc12', 'T-47D breast', 'TGI', '> 100 µM'),
  ('CCSC1=N/C(=C\c2ccco2)C(Cl)=N1', 'T-47D breast', 'TGI', '> 100 µM'),
  ('Cc1cccc(Cl)c1NC(=O)/C=C/c1ccccc1', 'T-47D breast', 'TGI', '> 100 µM'),
  ('COc1cc(Nc2cnc3cc(F)c(F)cc3n2)cc(OC)c1', 'T-47D breast', 'TGI', '> 100 µM'),
  ('COC(=O)C1=Cc2cc(OC)c(O)cc2[C@@H](c2ccc(O)c(OC)c2)[C@@H]1C(=O)OC', 'T-47D breast', 'TGI', '> 100 µM'),
  ('Fc1ccccc1-c1nn2c(C34CC5CC(CC(C5)C3)C4)nnc2s1', 'T-47D breast', 'TGI', '> 100 µM'),
  ('COc1cc(NCc2ccc3nc(OC)c(OC)nc3c2)cc(OC)c1OC', 'T-47D breast', 'TGI', '> 100 µM'),
  ('CCCCCCCCCCCCC(O)C1CCC(C(O)CCCCCCC(O)CCCCCCCC2=CC(C)OC2=O)O1 (configuration not stated)', 'T-47D breast', 'TGI', '> 100 µM'),
  ('O=c1oc2ccccc2c(O)c1C(c1ccc(/C=C/c2ccccc2)cc1)c1c(O)c2ccccc2oc1=O', 'T-47D breast', 'TGI', '> 100 µM'),
  ('COc1ccc2c(c1)OC1=C(C(=O)OC1)C2c1cc(OC)c(OC)c(OC)c1 (configuration not stated)', 'T-47D breast', 'TGI', '> 100 µM'),
  ('C=CCC(C(=O)O)c1ccccc1 (configuration not stated)', 'T-47D breast', 'TGI', '> 100 µM'),
  ('O=[N+]([O-])c1ccc(Nc2nc3ccccc3s2)cc1', 'T-47D breast', 'TGI', '14 µM'),
  ('NC(N)=N/N=C/c1c(-c2ccc([N+](=O)[O-])cc2)nc2n1CCS2', 'T-47D breast', 'TGI', '16.3 µM'),
  ('CN(C)CCCCN1c2ccccc2Sc2cc(N=[N+]=[N-])ccc21', 'T-47D breast', 'TGI', '4.86 µM'),
  ('c1ccc2c(c1)-c1ccccc1C2N1CC2CCC(CC2)C1', 'T-47D breast', 'TGI', '43.3 µM'),
  ('c1ccc(Nc2nnc(Cn3ccc4ccccc43)s2)cc1', 'T-47D breast', 'TGI', '> 100 µM'),
  ('C=C[C@H]1CCC/C=C/[C@@H]2C[C@H](O)C[C@H]2[C@H](O)/C=C/C(=O)O1', 'T-47D breast', 'TGI', '0.0973 µM'),
  ('[O-][n+]1onc(-c2ccccc2)c1CN1CCOCC1', 'T-47D breast', 'TGI', '> 100 µM'),
  ('O=C1CCC2CCC1C2 (configuration not stated)', 'T-47D breast', 'TGI', '> 100 µM'),
  ('O=C(Nc1ccc(F)cc1F)c1cc(Br)ccc1O', 'T-47D breast', 'TGI', '7.19 µM'),
  ('COc1ccc2c(CN3CCC[C@H]3C(=O)O)cc3cc4c(cc3c2c1)OCO4', 'T-47D breast', 'TGI', '> 100 µM'),
  ('COc1ccc(-c2ccc(/C=N/n3c(COc4ccc(Cl)cc4Cl)nn(CN4CCN(C)CC4)c3=S)o2)c([N+](=O)[O-])c1', 'T-47D breast', 'TGI', '53.2 µM');
